Taken from ChEMBL document CHEMBL4049456.

Target: Lysyl oxidase homolog 2 (Homo sapiens, UniProt Q9Y4K0)
Sequence (Q9Y4K0 whole entry): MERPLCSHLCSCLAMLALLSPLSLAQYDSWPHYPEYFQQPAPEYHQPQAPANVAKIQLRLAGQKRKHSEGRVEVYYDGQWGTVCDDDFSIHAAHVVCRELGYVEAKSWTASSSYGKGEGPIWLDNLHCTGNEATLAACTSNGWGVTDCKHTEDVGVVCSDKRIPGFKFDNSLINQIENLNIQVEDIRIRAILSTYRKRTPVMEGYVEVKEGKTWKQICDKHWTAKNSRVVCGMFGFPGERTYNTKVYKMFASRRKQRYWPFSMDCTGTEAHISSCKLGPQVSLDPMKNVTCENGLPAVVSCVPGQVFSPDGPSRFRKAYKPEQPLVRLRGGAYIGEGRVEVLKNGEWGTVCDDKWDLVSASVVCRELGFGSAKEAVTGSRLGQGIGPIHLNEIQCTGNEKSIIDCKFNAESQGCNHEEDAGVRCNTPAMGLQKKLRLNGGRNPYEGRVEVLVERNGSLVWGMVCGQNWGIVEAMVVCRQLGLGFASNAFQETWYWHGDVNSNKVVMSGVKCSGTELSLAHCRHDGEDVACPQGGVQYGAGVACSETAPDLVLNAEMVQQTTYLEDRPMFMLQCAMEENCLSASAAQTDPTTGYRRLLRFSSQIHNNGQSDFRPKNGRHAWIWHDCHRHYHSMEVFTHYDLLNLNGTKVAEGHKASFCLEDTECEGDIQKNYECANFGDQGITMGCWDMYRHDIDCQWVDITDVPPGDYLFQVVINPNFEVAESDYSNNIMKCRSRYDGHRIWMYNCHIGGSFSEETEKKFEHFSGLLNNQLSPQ
Test: Inhibition of human LOXL2 expressed in CHO cells assessed as reduction of H2O2 production from oxidative deamination of DAP preincubated for 2 hrs followed by substrate addition measured every 2 mins for 1 hr by amplex red reagent-based fluorescence assay
Format: cell-based
Listed next: entries and their corresponding IC50.
Give just the numeric value; nM need not be written.

Use these answered entries as a reference point.
CONC(=O)c1cccc(Oc2cc(CN)cc(C(F)(F)F)n2)c1.Cl	96
NCc1ccnc(Oc2cccc(C(=O)Nc3ccc(C(=O)O)cc3)c2)c1	81
NCc1ccnc(Oc2cccc(C(=O)NCc3cc4ccccc4s3)c2)c1	79
NCc1ccnc(OC2CCCCC2)c1	850
NCc1cc(Oc2cccc(Oc3ccccc3)c2)nc(C(F)(F)F)c1	67

What does the data say about its IC50? Entry: NCc1cc(O[C@@H]2CCCN(C(=O)Nc3ccccc3)C2)nc(C(F)(F)F)c1
570

What does the data say about its IC50? Entry: Cl.NCc1cc(Oc2cccc(C(=O)NC[C@@H](O)CO)c2)nc(C(F)(F)F)c1
77
